# study-system: human IL-6 (human, UniProt P05231 30-212)
# Sequence (P05231 30-212 limits assumed): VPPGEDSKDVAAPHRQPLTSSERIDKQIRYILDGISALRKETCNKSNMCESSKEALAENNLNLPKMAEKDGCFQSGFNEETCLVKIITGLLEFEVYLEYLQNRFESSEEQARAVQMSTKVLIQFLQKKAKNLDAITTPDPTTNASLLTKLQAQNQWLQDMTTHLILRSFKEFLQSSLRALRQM
# test-name: SPR Biacore, supernatant, Protein A capture, 37 C
Consider the following binders and their measured kon readings.
quantity: kon (M⁻¹ s⁻¹)

• Anti-IL-6 antibody, heavy chain S35H, G66D, L100R / light chain WT (antibody, IgG1, V domains shown, IgG1; variable domains only) VH: EVQLVESGGGLVQPGGSLRLSCAASGFTFSPFAMHWVRQAPGKGLEWVAKISPGGSWTYYSDTVTDRFTFSLDTSKSTAYLQMNSLRAEDTAVYYCARQRWGYYALDIWGQGTLVTVSS VL: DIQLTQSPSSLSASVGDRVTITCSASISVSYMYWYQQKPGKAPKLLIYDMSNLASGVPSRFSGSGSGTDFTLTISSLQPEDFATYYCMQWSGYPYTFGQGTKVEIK = 951000
• Anti-IL-6 antibody, heavy chain S35H, G66D, Q99V / light chain M32L, M50D, N52S, M88Q (antibody, IgG1, V domains shown, IgG1; variable domains only; VL is variant III) VH: EVQLVESGGGLVQPGGSLRLSCAASGFTFSPFAMHWVRQAPGKGLEWVAKISPGGSWTYYSDTVTDRFTFSLDTSKSTAYLQMNSLRAEDTAVYYCARVLWGYYALDIWGQGTLVTVSS VL: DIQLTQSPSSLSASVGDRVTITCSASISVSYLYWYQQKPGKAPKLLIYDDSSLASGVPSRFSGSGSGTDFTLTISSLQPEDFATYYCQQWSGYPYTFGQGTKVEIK = 794000
• Anti-IL-6 antibody, heavy chain S35H, G66D, Q99R / light chain WT (antibody, IgG1, V domains shown, IgG1; variable domains only) VH: EVQLVESGGGLVQPGGSLRLSCAASGFTFSPFAMHWVRQAPGKGLEWVAKISPGGSWTYYSDTVTDRFTFSLDTSKSTAYLQMNSLRAEDTAVYYCARRLWGYYALDIWGQGTLVTVSS VL: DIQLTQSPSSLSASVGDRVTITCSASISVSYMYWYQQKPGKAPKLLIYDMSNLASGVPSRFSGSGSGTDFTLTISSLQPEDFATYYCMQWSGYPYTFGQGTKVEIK = 141000

Reference source for all entries: patent US20240209076A1
